# system-under-test: T1, O4-bA
# T1 chain: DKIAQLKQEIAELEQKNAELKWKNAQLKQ
# measurement-description: two-hybrid library CCNG1;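 also: natural log of median RNA to DNA barcode read ratio; higher means stronger binding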
measure: interaction score

>>> endpoint_value("DKNAQLKQENAELEQEIAELEWEIAQLEQ [O1-bA]")
-1.53
>>> endpoint_value("DKIAQLKQEIAELEQKNAELKWKNAQLKQ [O4-bA]")
0.158
>>> endpoint_value("DKNAQLKQKIAELKQKNAELKWEIAQLEQ [O13-bA]")
-1.31
>>> endpoint_value("DEIAQLEQKIAELKQKNAELKWKNAQLKQ [O12-bA]")
1.27
>>> endpoint_value("DEIAQLEQKIAELKQENAELEWENAQLEQ [O3-bA]")
2.34
>>> endpoint_value("DENAQLEQEIAELEQENAELEWKIAQLKQ [O14-bA]")
-0.146
>>> endpoint_value("DKIAQLKQENAELEQEIAELKWKIAQLKQ [4H2702-bA]")
-0.822
>>> endpoint_value("DEIAQLEQENAELEQKIAELKWENAQLEQ [O15-bA]")
-0.5
>>> endpoint_value("DKIAQLKQEIAELEQENAELEWENAQLEQ [O11-bA]")
2.16
>>> endpoint_value("DKIAQLKQKNAELKQEIAELEWKNAQLKQ [O16-bA]")
-0.54
>>> endpoint_value("DKNAQLKQENAELEQKIAELKWKIAQLKQ [O10-bA]")
-0.577
>>> endpoint_value("DENAQLEQKNAELKQKIAELKWKIAQLKQ [O2-bA]")
-0.35
